Each recorded value in this set is attributed to patent US6187781A.

Molecular target: CRF receptor (Rattus norvegicus, UniProt P35353)
Sequence (P35353 24-415): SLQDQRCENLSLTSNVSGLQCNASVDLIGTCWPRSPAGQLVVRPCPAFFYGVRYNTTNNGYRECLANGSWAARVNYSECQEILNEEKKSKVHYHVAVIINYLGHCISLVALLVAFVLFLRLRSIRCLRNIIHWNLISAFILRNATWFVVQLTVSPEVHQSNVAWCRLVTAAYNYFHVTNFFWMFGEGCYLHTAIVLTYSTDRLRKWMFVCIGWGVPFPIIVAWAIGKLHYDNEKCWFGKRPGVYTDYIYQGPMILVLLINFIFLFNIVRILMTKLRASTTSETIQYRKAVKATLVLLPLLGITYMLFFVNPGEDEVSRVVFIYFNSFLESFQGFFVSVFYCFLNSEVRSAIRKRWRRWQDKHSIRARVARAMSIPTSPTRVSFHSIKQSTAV
pIC50: −log10 of the molar value. Where a name gives a salt, the structure may show the parent alone.
Entries and their measured pIC50 follow.

>  <COMPOUND>
CCN(c1nc(C)cc(N2CCC=C(c3ccccc3)C2)n1)c1ccc(C(C)C)cc1Br [Compound 2-01, hydrochloride]

>  <TARGET_SYSTEM>
CRF receptor (Rattus norvegicus, UniProt P35353)

>  <pIC50>
7.05

$$$$
>  <COMPOUND>
CCN(c1nc(C)cc(N2CC=C(c3ccccc3)CC2)n1)c1ccc(C(C)C)cc1Br [Compound 1-01, hydrochloride]

>  <TARGET_SYSTEM>
CRF receptor (Rattus norvegicus, UniProt P35353)

>  <pIC50>
7.18

$$$$
>  <COMPOUND>
CCN(c1nc(C)cc(N2CC=C(c3cccc(C)c3)CC2)n1)c1ccc(C(C)C)cc1Br

>  <TARGET_SYSTEM>
CRF receptor (Rattus norvegicus, UniProt P35353)

>  <pIC50>
7.18

$$$$
>  <COMPOUND>
CCN(c1nc(C)cc(N2CC=C(c3ccc(F)c(F)c3)CC2)n1)c1ccc(N(C)C)cc1Br

>  <TARGET_SYSTEM>
CRF receptor (Rattus norvegicus, UniProt P35353)

>  <pIC50>
7.05

$$$$

----------
Biological target: CRF receptor (Rattus norvegicus, UniProt P35353)
Sequence (P35353 24-415): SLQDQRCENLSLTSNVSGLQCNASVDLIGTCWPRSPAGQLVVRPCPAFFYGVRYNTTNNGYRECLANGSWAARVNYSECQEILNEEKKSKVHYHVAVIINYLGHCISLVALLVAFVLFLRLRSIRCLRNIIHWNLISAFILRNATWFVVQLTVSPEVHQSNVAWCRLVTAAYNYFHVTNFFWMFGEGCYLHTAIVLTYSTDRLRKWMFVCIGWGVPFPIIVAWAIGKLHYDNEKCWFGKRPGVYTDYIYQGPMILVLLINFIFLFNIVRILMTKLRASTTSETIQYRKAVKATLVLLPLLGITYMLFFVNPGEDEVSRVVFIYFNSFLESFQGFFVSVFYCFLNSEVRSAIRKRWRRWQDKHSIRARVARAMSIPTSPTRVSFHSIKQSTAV
pIC50: −log10 of the molar value.
Entries and their measured pIC50 follow.
MEASUREMENT_NAME: pIC50

>  <COMPOUND>
C#CCN(c1nc(C)cc(N2CCC=C(c3ccc(F)cc3)C2)n1)c1ccc(C(C)C)cc1SC [Compound 2-07]

>  <REPORTED_RESULT>
7.69

$$$$
>  <COMPOUND>
C#CCN(c1nc(C)cc(N2CC=C(c3cccc(Cl)c3)CC2)n1)c1ccc(C(C)C)cc1Br [Compound 1-31]

>  <REPORTED_RESULT>
7.02

$$$$
>  <COMPOUND>
CCN(c1nc(C)cc(N2CC=C(c3cccc(F)c3)CC2)n1)c1ccc(C(C)C)cc1Br [Compound 1-02]

>  <REPORTED_RESULT>
7.66

$$$$
>  <COMPOUND>
C#CCN(c1nc(C)cc(N2CC=C(c3cc(F)cc(F)c3)CC2)n1)c1ccc(C(C)C)cc1SC [Compound 1-27]

>  <REPORTED_RESULT>
7.90

$$$$
